test system: OVCAR-8 ovarian; test: NCI tumour cell line growth inhibition, 48 h
# TGI listing for each entry below

Here are 6 compounds together with their reported answers.
                                   compound  test_value
0        C[N+](C)(C)CCOC(=O)/C=C/c1cnc[nH]1    > 500 µM
1   CCN(CCCl)CCCCCNc1c2ccccc2nc2ccc(OC)cc12     1.96 µM
2         Brc1c2nc3ccccc3nc2n2ccc3ccccc3c12    > 100 µM
3               Nc1ncnc2c1sc(=S)n2-c1ccccc1    > 100 µM
4  CN(C)C[C@H]1CCn2c(c(C3=C(c4cn(C)c5ccccc45)C(=O)NC3=O)c3ccccc32)C1     13.2 µM
5  Cc1cc(Br)cc(C)c1NC(=O)C(=O)C(C(=O)c1ccncc1)C1OC(=O)c2ccccc21 (stereo unspecified)    > 100 µM

INPUT: Lab note: need TGI with OVCAR-8 ovarian for entry CCO/C(CCn1[nH]c(=O)c(Cl)c(Cl)c1=O)=N\NC(=O)C(=O)NN , please look it up.
OUTPUT: > 100 µM

INPUT: Do the same for CSc1c2c(C)n[nH]c2nn1-c1ccccc1 please
OUTPUT: > 100 µM

INPUT: Do the same for O=C1NC(O)c2ccccc2O1 (stereo unspecified) please
OUTPUT: > 100 µM

INPUT: Do the same for COC1(OC)C2(Cl)C(Cl)=C(Cl)C1(Cl)C1c3ccc(C(C)=O)c4cccc(c34)C12 (stereo unspecified) please
OUTPUT: > 100 µM

INPUT: Do the same for N=c1n(CC(=O)NC23CC4CC(CC(C4)C2)C3)c2ccccc2n1CC(=O)NC12CC3CC(CC(C3)C1)C2 please
OUTPUT: 3.13 µM

* * *

test system: MDA-MB-231 breast; assay: NCI tumour cell line growth inhibition, 48 h
Endpoint: TGI

Here are 6 compounds together with their reported answers.
>>> print(df.to_string())
                                   compound       assay_target  test_value
0  COC1(OC)C2(Cl)C(Cl)=C(Cl)C1(Cl)C1c3ccc(C(C)=O)c4cccc(c34)C12 (stereo unspecified)  MDA-MB-231 breast    > 100 µM
1  CCNC(=O)NNc1ncnc2c1c(-c1ccc(Cl)cc1)cn2-c1ccc(C)cc1  MDA-MB-231 breast     34.8 µM
2             CSc1c2c(C)n[nH]c2nn1-c1ccccc1  MDA-MB-231 breast    > 100 µM
3  O=C1Nc2ccccc2/C1=C\c1cccc(/C=C2/C(=O)Nc3ccccc32)n1  MDA-MB-231 breast     2.77 µM
4  Cn1cc(-c2nc(-c3c[nH]c4ccncc34)cs2)c2ccccc21  MDA-MB-231 breast     3.04 µM
5  Cc1cc2c(cc1C)[n+](=O)c(C(=O)/C=C/c1ccc3c(c1)OCO3)c(C)n2[O-]  MDA-MB-231 breast    > 100 µM

INPUT: Form field: reported TGI of CNC(=O)c1cc2nc3ccccc3c(=O)n2c2ccccc12
OUTPUT: > 10 µM

INPUT: Do the same for COc1cc(OCc2nc3cc(C(F)(F)F)ccc3nc2-c2ccccc2)cc(OC)c1OC please
OUTPUT: > 100 µM

INPUT: Do the same for CC(=O)NNC(=S)/N=C\c1c(O)c2ccccc2oc1=O please
OUTPUT: > 100 µM

INPUT: Do the same for COc1ccc(N2CN(C)CSC2=S)cc1 please
OUTPUT: > 100 µM

INPUT: Do the same for O=C1CSC(c2ccc(-c3nc4ccccc4[nH]3)cc2)=N1 please
OUTPUT: > 50 µM

* * *

test system: HCT-116 colon; assay: NCI tumour cell line growth inhibition, 48 h
# TGI listing for each entry below

                                   molecule   assay_target  test_value
0  O=C(O)/C=C/c1ccc[c]([Sb](=[O])([OH])[OH])c1  HCT-116 colon    > 100 µM
1  COc1cc(S(=O)(=O)Nc2ccc(-c3csc(N4C(=O)C(Cl)C4c4cccc(Oc5ccccc5)c4)n3)cc2)ccc1Cl (configuration not stated)  HCT-116 colon    > 100 µM
2        COc1ccc(C(C#N)=C2C=CC(=NO)C=C2)cc1  HCT-116 colon     5.55 µM
3           N#C/C=c1/c2ccccc2n2nc3ccccc3c12  HCT-116 colon     12.1 µM
4       C/C(=N/NC(=S)Nc1cccc(Cl)c1)c1ccccn1  HCT-116 colon     12.2 µM

Alright, here's another molecule for you.
INPUT: Lab note: need TGI with HCT-116 colon for entry COC(=O)c1ccccc1NC(=S)NN(C)C , please look it up.
OUTPUT: > 100 µM

* * *

# TGI listing for each entry below
test system: NCI-H226 lung; test: NCI tumour cell line growth inhibition, 48 h
// return numeric value only (unit: µM, not printed)

Here are 3 compounds together with their reported answers.
                                   compound  test_value
0       C=CCNc1nc(O)c(/C=C2\C=Nc3ncccc32)s1        21.6
1  c1ccc2[nH]c3c(N=NC4=NCCN4)c4ccccc4c-3nc2c1        23.7
2  Nc1nc(Nc2ccc(Cl)cc2)sc1C(=O)c1c[nH]c2ccccc12        46.1

Alright, here's another compound for you.
INPUT: Form field: reported TGI of Oc1[nH]c(N=C2N=c3ccccc3=N2)c2ccccc12
OUTPUT: 30

* * *

test system: UACC-62 melanoma; experiment: NCI tumour cell line growth inhibition, 48 h
Endpoint: TGI

Molecule	Assay Target	TGI
O=C(O)CN1CCCC(Cc2c[nH]c3ccccc23)C1 (configuration not stated)	UACC-62 melanoma	> 100 µM
O=C(NC12CC3CC(CC(C3)C1)C2)C(=O)c1c[nH]c2ccc(Br)cc12	UACC-62 melanoma	> 100 µM
C/C(=N/NC(=S)Nc1cccc(Cl)c1)c1ccccn1	UACC-62 melanoma	2.49 µM
COc1cc2c3c(n(CCCCNC(=O)OC(C)(C)C)c(=O)c2cc1OC)-c1cc2c(cc1C3=O)OCO2	UACC-62 melanoma	> 100 µM
C=CC(C)(C)C1(CC(OC)OC)C(=O)N(C)c2ccccc21 (configuration not stated)	UACC-62 melanoma	> 25 µM
Cc1c(N)nc([C@H](CC(N)=O)NC[C@H](N)C(N)=O)nc1C(=O)N[C@H](C(=O)N[C@H](C)[C@@H](O)CC(=O)N[C@H](C(=O)NC(O[C@@H]1O[C@@H](C)[C@@H](N)[C@@H](O)[C@H]1O)C(O)c1nc(-c2nc(C(=O)NCCCCN)cs2)cs1)[C@@H](C)O)[C@@H](O[C@@H]1O[C@@H](CO)[C@@H](O)[C@H](O)[C@@H]1O[C@H]1O[C@H](CO)[C@@H](O)[C@H](OC(N)=O)[C@@H]1O)c1c[nH]cn1 (some centres not stated)	UACC-62 melanoma	> 50 µM

Alright, here's another molecule for you.
INPUT: Lab note: need TGI with UACC-62 melanoma for entry Brc1c2nc3ccccc3nc2n2ccc3ccccc3c12 , please look it up.
OUTPUT: > 100 µM

* * *

tested on: SNB-19 CNS; experiment: NCI tumour cell line growth inhibition, 48 h
*1 amine or outer side, *2 acyl side, *3 side chain or, on linkers, in order; H or OH if unused. Where a SMILES comes first, the peptide text is derived from it. Bridges are numbered along the chain shown (N, C = ends). Roman numbers before positions name the chains, in order. [ ]: non-standard residue; d: D form. Actinocin(9to1) = Cc1c2oc3c(C)ccc(C(=O)[*:1])c3nc-2c(C(=O)[*:2])c(N)c1=O; NMeV = CN[CH](C(=O)O)C(C)C; Sar = CNCC(=O)O
# TGI listing for each entry below

Here are 5 molecules together with their reported answers.
Molecule	Endpoint	Test Value
Brc1c2nc3ccccc3nc2n2ccc3ccccc3c12	TGI	> 100 µM
CC(CN(C)C)S(=O)(=O)c1ccc(-c2cnc(N)c(C(=O)Nc3ccccc3)n2)cc1 (configuration not stated)	TGI	75.1 µM
Cc1nc2ccccc2c(=O)n1NC(=O)c1ccccc1[N+](=O)[O-]	TGI	> 100 µM
CCCCCCCCCCCC[N+](C)(C)Cc1ccccc1	TGI	7.12 µM
CCC[CH2][Sn]([CH2]CCC)([CH2]CCC)[O]C(=O)C(OC(C)=O)c1ccccc1 (configuration not stated)	TGI	0.322 µM

INPUT: Form field: reported TGI of O=c1/c(=C/c2c(O)ccc3ccccc23)sc2nc3ccccc3n12
OUTPUT: > 100 µM

INPUT: Do the same for C=CCNc1nc(O)c(/C=C2\C=Nc3ncccc32)s1 please
OUTPUT: 7.29 µM

INPUT: Do the same for Cc1c2oc3c(C)ccc(C(=O)OC(C)C4NC(=O)C(C(C)C)N(C)C(=O)CN(C)C(=O)C5CCCN5C(=O)C(C(C)C)NC4=O)c3nc-2c(C(=O)OC(C)C2NC(=O)C(C(C)C)N(C)C(=O)CN(C)C(=O)C3CCCN3C(=O)C(C(C)C)NC2=O)c(N)c1=O (configuration not stated) (I: cyclo([Sar][NMeV]TVP) / II: cyclo([Sar][NMeV]TVP); linker I:3-II:3 via Actinocin(9to1); configuration not given here) please
OUTPUT: > 55.5 µM

INPUT: Do the same for C=C1C(=O)O[C@H]2[C@H]1CC/C(Cn1cc(Cc3c[nH]c4ccccc34)nn1)=C\CC[C@@]1(C)O[C@@H]21 please
OUTPUT: 6.33 µM

INPUT: Do the same for Cc1c(NC(=O)CCl)c(=O)oc2c(C)c3occc(=O)c3cc12 please
OUTPUT: 33.6 µM

INPUT: Do the same for N=c1n(CC(=O)NC23CC4CC(CC(C4)C2)C3)c2ccccc2n1CC(=O)NC12CC3CC(CC(C3)C1)C2 please
OUTPUT: 3.02 µM

INPUT: Do the same for CC(C)(C)c1ccc(O)c(C(c2ccc([N+](=O)[O-])cc2)c2cc(C(C)(C)C)ccc2O)c1 please
OUTPUT: 5.36 µM

INPUT: Do the same for COc1cccc(-n2ncc3c(N/N=C/c4ccc(C)cc4)ncnc32)c1 please
OUTPUT: > 25 µM

INPUT: Do the same for CCCN(CCC)CCc1cc(C(C)=O)n(S(=O)(=O)c2ccc(C)cc2)c1 please
OUTPUT: > 100 µM

INPUT: Do the same for CC(=Nc1ccccc1)C1=C(O)C(Cc2cccc(F)c2)NC1=O (configuration not stated) please
OUTPUT: > 100 µM

INPUT: Do the same for C/C(=N\NC(=O)CC#N)C(CN1CCCCC1)C(c1ccccc1)c1c(O)c2ccccc2oc1=O (configuration not stated) please
OUTPUT: > 100 µM

INPUT: Do the same for Cc1ccc(S(=O)(=O)NC(=O)NCCc2ccc(O)c(O)c2)cc1 please
OUTPUT: > 100 µM

Source of measurements: PubChem BioAssay (NCI)
